The reported measurements were obtained from PubChem BioAssay (Tox21).

# testSummary: qHTS assay for identifying genotoxic compounds that show differential cytotoxicity against isogenic chicken DT40 cell lines with known DNA damage response pathways - Rad54/Ku70 mutant cell line (AID 743015); note: nearly all actives have a fitted effect of over 60% in size
# measurementSetup: DT40 Rad54/Ku70 mutant viability, CellTiter-Glo, 40 h; series mostly up to 66.8 µM
Records with an inconclusive call do not appear. Activity calls are given as the source filed them. Calls come from the whole dose curve; as a rule, active = well fitted cell-killing curve with a large enough effect in the repeat runs; inconclusive = weak or mixed curves; inactive = no such curve, though single readings can be large or run the other way.
Give one outcome, nothing more. List: class 1 for active, class 0 for inactive

I would be grateful if you could indicate the recorded call for CC/C=C\CCOC(=O)CCCCC .
class 0

I would be grateful if you could indicate the recorded call for O=C1CCCc2ccccc21 .
class 0

I would be grateful if you could indicate the recorded call for COC(=O)C(C)O (stereo unspecified) .
class 0

I would be grateful if you could indicate the recorded call for Cc1ccc([N+](=O)[O-])c(N)c1 .
class 0

I would be grateful if you could indicate the recorded call for CCOC(=O)NCCC[Si](OCC)(OCC)OCC .
class 0

I would be grateful if you could indicate the recorded call for CCN(CC)CCNC(=O)COc1ccc(Cl)cc1 .
class 0

I would be grateful if you could indicate the recorded call for CN1CCN(c2c(F)cc3c(=O)c(C(=O)O)cn4c3c2SCC4)CC1 .
class 1

I would be grateful if you could indicate the recorded call for CN1CCN(C2=Nc3cc(F)ccc3Cc3ccccc32)CC1 .
class 1

I would be grateful if you could indicate the recorded call for CCN(CCCc1ccccc1)CCCc1ccccc1 .
class 1

I would be grateful if you could indicate the recorded call for CC/C=C\CCOC(=O)C(C)C .
class 0

I would be grateful if you could indicate the recorded call for O=CCCc1ccccc1 .
class 0

I would be grateful if you could indicate the recorded call for Cc1cc(S(=O)(=O)O)c(N)cc1Cl .
class 0

I would be grateful if you could indicate the recorded call for O=c1oc2c(O)c(O)cc3c(=O)oc4c(O)c(O)cc1c4c23 .
class 0

I would be grateful if you could indicate the recorded call for CCCCCCCCc1ccc(S(=O)(=O)O)cc1 .
class 0

I would be grateful if you could indicate the recorded call for CN1CCC[C@@H]1Cc1c[nH]c2ccc(CCS(=O)(=O)c3ccccc3)cc12 .
class 1

I would be grateful if you could indicate the recorded call for O=C(O[C@@H](C(=O)O)[C@@H](OC(=O)c1ccccc1)C(=O)O)c1ccccc1 .
class 0

I would be grateful if you could indicate the recorded call for COC(C)CCO (stereo unspecified) .
class 0

----------
# testSummary: qHTS assay for small molecules that induce genotoxicity in human embryonic kidney cells expressing luciferase-tagged ATAD5 - cell viability (AID 651634); note: nearly all actives have a fitted effect of over 25% in size
# measurementSetup: HEK293T ATAD5-luc cells viability, CellTiter-Fluor, 15.5 h; series mostly up to 83.3 µM
Results filed as inconclusive are left out. The source made the active and inactive calls. Calls follow the shape of the full dose curve.
Give one outcome, nothing more. List: class 1 (active), class 0 (inactive)

Example entries begin here.
O=C1CCCCC1C1CCCCC1 (stereo not given)    class 0
O=C1N(c2ccccc2)c2ccccc2C1(Cc1ccncc1)Cc1ccncc1    class 0

Continue with the molecule presented below.
I would be grateful if you could indicate the recorded call for COc1ccccc1OCC(O)COC(N)=O (stereo not given) .
class 0

----------
# testSystem: Nuclear receptor subfamily 1 group I member 2 (Homo sapiens)
# testSummary: Human pregnane X receptor (PXR) small molecule agonists, qHTS assay (AID 1346982); note: nearly all actives have a fitted effect of over 35% in size
# measurementSetup: PXR-Luc HepG2, CYP3A4 luciferase reporter, 24 h; series mostly up to 92.4 µM
Records with an inconclusive call do not appear. Activity calls are given as the source filed them. Calls follow the shape of the dose curve; as a rule, active = well fitted activation curve with a large enough effect in the repeat runs; inconclusive = weak or mixed curves; inactive = no such curve, though single readings can be large or run the other way.
Give one outcome, nothing more. List: y (active), n (inactive)

CC1(C)C(=O)N(Cl)C(=O)N1Br    n
CC(C)c1ccccc1    n
COc1ccccc1N1CCN(CCCNc2cc(=O)n(C)c(=O)n2C)CC1    n
CN1CCN(C2=Nc3cc(F)ccc3Cc3ccccc32)CC1    n

I would be grateful if you could indicate the recorded call for CC(C)C1=CC2=CC[C@@H]3[C@](C)(CCC[C@@]3(C)C(=O)O)[C@H]2CC1 .
y

I would be grateful if you could indicate the recorded call for CCN(CC)CC1CCCCN1CC(=O)N1c2ccccc2C(=O)Nc2cccnc21 (stereo not given) .
n

I would be grateful if you could indicate the recorded call for CC1=CC(=O)CC(C)(C)C1=O .
y
